Field IC50: reported value for Insulin receptor (Homo sapiens, UniProt P06213); entries drawn from several documents.

{"compound": "CCN1CCC(Nc2ccc3c(c2)/C(=C(/c2ncc[nH]2)c2ccc(F)cc2F)C(=O)N3)CC1", "IC50": "0.5 to 5 µM"}
{"compound": "Cc1ccc(OC[C@H](O)CNc2cc[nH]c(=O)c2-c2nc3cc4c(cc3[nH]2)CN(C2CCN(C)CC2)C4=O)c(Br)c1", "IC50": "< 0.5 µM"}
{"compound": "C=CC(=O)Nc1cc(Nc2nccc(-c3cn(C45CC(C4)C5)c4ccccc34)n2)c(OC)cc1N(C)CCNC", "IC50": "≥ 0.1 µM"}
{"compound": "C=CC(=O)N[C@@H]1CN(c2nc(Nc3cn(C)nc3OC)c3ncn(C45CC(C4)C5)c3n2)C[C@H]1F (racemic)", "IC50": "≥ 0.1 µM"}
{"compound": "CNC(=O)c1cccc(C)c1Nc1nc(Nc2ccc(NC(=O)[C@]34CC5CC(C3)[C@@H](N3CC[C@H](NC(C)=O)C3)C(C5)C4)cc2OC)ncc1C(F)(F)F", "IC50": "> 10 µM"}
{"compound": "CCN1CCC(Nc2ccc3c(c2)/C(=C(/c2cc(F)cc(F)c2)c2nc4cc(F)ccc4[nH]2)C(=O)N3)CC1", "IC50": "> 5 µM"}
{"compound": "COCCN1CCC(Nc2ccc3c(c2)/C(=C(\\c2ccc(F)cc2)c2ncc[nH]2)C(=O)N3)CC1", "IC50": "> 5 µM"}
{"compound": "CN1CCC(N2Cc3cc4[nH]c(-c5c(NC[C@@H](O)COc6ccccc6Br)cc[nH]c5=O)nc4cc3C2=O)CC1", "IC50": "< 0.5 µM"}
{"compound": "Cc1cc(C)n(C[C@H](O)CNc2cc[nH]c(=O)c2-c2nc3cc4c(cc3[nH]2)C(=O)N(C2CCN(C)CC2)C4=O)n1", "IC50": "5 to 15 µM"}
{"compound": "Cc1ccc(OC[C@H](O)CNc2cc[nH]c(=O)c2-c2nc3cc4c(cc3[nH]2)C(=O)N(CCCN2CCCC2)C4=O)c(C)c1", "IC50": "< 0.5 µM"}
{"compound": "CN1CCC(N2C(=O)c3cc4nc(-c5c(NC[C@@H](O)COc6cccc(N7CCOCC7)c6)ccnc5O)[nH]c4cc3C2=O)CC1", "IC50": "5 to 15 µM"}
{"compound": "CCN1CCC(Nc2ccc3c(c2)/C(=C(\\c2cccc(F)c2)c2ncn[nH]2)C(=O)N3)CC1", "IC50": "> 5 µM"}
{"compound": "CN1CCC(N2C(=O)c3cc4nc(-c5c(NC[C@@H](O)COc6cccc(C#N)c6)ccnc5O)[nH]c4cc3C2=O)CC1", "IC50": "0.5 to 5 µM"}
{"compound": "COc1ccc(OCC(O)CNc2cc[nH]c(=O)c2-c2nc3cc4c(cc3[nH]2)C(=O)N(C2CCN(C)CC2)C4=O)cc1 (centres unmarked)", "IC50": "0.5 to 5 µM"}
